- measured target: FXR (Homo sapiens (Human))
- assay info: FXR EC50 (FXR agonist potency reported with each Example)
- Type: cell-based
pEC50: −log10 of the molar value.
reported metric: pEC50

>>> print(df.to_string())
                                    compound  recorded_value
 0  O=C(N(CC12CCC(c3nc(C4CC4)no3)(CC1)CC2)c1cccc(-c2cnn(-c3cccnc3)c2)c1)C12CC(F)(C1)C2 [Example 152]            6.79
 1  Cn1nc(C23CCC(CN(C(=O)C45CC(F)(C4)C5)c4cccc(-c5noc(C6CC6)n5)c4)(CC2)CC3)cc1C1CC1 [Example 170]            7.13
 2  O=C(C1CC(F)(F)C1)N(CC12CCC(c3nnc(C4CC4)o3)(CC1)CC2)c1cccc(-c2nnc(C3CC3)o2)c1 [Example 135]            5.96
 3  CCOc1nnc(-c2cccc(N(CC34CCC(c5nc(C6CC6)no5)(CC3)CC4)C(=O)C3CCC(F)(F)C3)c2)o1 (centres unmarked) [Example 55]            6.90
 4  O=C(C1CCC(F)(F)C1)N(CC12CCC(c3nc(CC4CC4)no3)(CC1)CC2)c1cccc(-c2nc(CC3CC3)no2)c1 (centres unmarked) [Example 62]            6.44
 5  O=C(N(CC12CCC(c3nc(C4CC4)no3)(CC1)OC2)c1cccc(-c2nc(C3CC3)no2)c1)C12CC(F)(C1)C2 [Example 196]            6.69
 6  CC(C)(O)c1coc(-c2cccc(N(CC34CCC(c5nc(C6CC6)no5)(CC3)CC4)C(=O)C3CC(F)(F)C3)c2)n1 [Example 16]            6.50
 7  COc1cccc(-c2cccc(N(CC34CCC(c5nc(C)no5)(CC3)CC4)C(=O)C34CC(F)(C3)C4)c2)c1 [Example 221]            6.30
 8  COC(C)(C)c1coc(-c2cccc(N(CC34CCC(c5nc(C6CC6)no5)(CC3)CC4)C(=O)C34CC(F)(C3)C4)c2)n1 [Example 79]            6.71
 9  Cn1nc(C2CC2)cc1C12CCC(CN(C(=O)C34CC(F)(C3)C4)c3cccc(-c4noc(C(C)(C)C)n4)c3)(CC1)CC2 [Example 165]            6.91
10  N#CC1(c2ccc(C34CCC(CN(C(=O)C5CC(C(F)F)C5)c5cccc(-c6nc(C7CC7)no6)c5)(CC3)CO4)cc2)CC1 (centres unmarked) [Example 141]            6.19
11  O=C(C1CC(C(F)F)C1)N(CC12CCC(c3nc(C4CC4)no3)(CC1)OC2)c1cccc(-c2cc(C3CC3)on2)c1 (centres unmarked) [Example 201]            6.42
12  CC(C)(O)c1coc(-c2cccc(N(CC34CCC(c5nc(C6CC6)no5)(CC3)CC4)C(=O)C34CC(F)(C3)C4)c2)n1 [Example 15]            7.06
13  CC(C)(O)c1coc(-c2cccc(N(CC34CCC(c5nc(C6CC6)no5)(CC3)CC4)C(=O)C3CC(C(F)F)C3)c2)n1 (centres unmarked) [Example 17]            6.51
14  N#CC1(c2ccc(C34CCC(CN(C(=O)C5CC(C(F)F)C5)c5cccc(-c6nnc(C7CC7)o6)c5)(CC3)CO4)cc2)CC1 (centres unmarked) [Example 144]            5.67
15  COCc1nc(-c2cccc(N(CC34CCC(c5nc(C6CC6)no5)(CC3)CC4)C(=O)C34CC(F)(C3)C4)c2)cs1 [Example 72]            6.78
16  O=C(N(CC12CCC(c3nc(C4CC4)no3)(CC1)CC2)c1cccc(-c2cnn(C3COC3)c2)c1)C12CC(F)(C1)C2 [Example 150]            7.06
17  O=C(C1CC(F)(F)C1)N(CC12CCC(c3nc(C4CC4)cs3)(CC1)CC2)c1cccc(-c2nc(C3CC3)no2)c1 [Example 101]            6.20
18  CC(C)c1noc(C23CCC(CN(C(=O)C45CC(F)(C4)C5)c4cccc(-c5noc(C6(C)CC6)n5)c4)(CC2)CC3)n1 [Example 175]            7.27
19  O=C(N(CC12CCC(c3nc(C4CC4)no3)(CC1)CC2)c1cccc(-c2noc(C3(O)CC3)n2)c1)C12CC(F)(C1)C2 [Example 110]            7.06
20  Cc1noc(C23CCC(CN(C(=O)C45CC(F)(C4)C5)c4cccc(-c5cnc(C6CCOCC6)o5)c4)(CC2)CC3)n1 [Example 34]            5.82
21  CC1(C(=O)N(CC23CCC(c4nc(C(C)(C)C)no4)(CC2)CC3)c2cccc(-c3nc(C4CC4)no3)c2)COC1 [Example 191]            6.08
22  CCn1cc(-c2cccc(N(CC34CCC(c5nc(C6CC6)no5)(CC3)CC4)C(=O)C3CC(F)(F)C3)c2)oc1=O [Example 81]            6.02
23  CC(C)(C)c1noc(C23CCC(CN(C(=O)C45CC(F)(C4)C5)c4cccc(-c5noc(C6(C)CC6)n5)c4)(CC2)CC3)n1 [Example 176]            7.62
24  CCCc1ncc(-c2cccc(N(CC34CCC(c5nc(C6CC6)no5)(CC3)CC4)C(=O)C34CC(F)(C3)C4)c2)o1 [Example 26]            7.14
25  CC(C)(C)c1nc(-c2cccc(N(CC34CCC(c5ccc(C(F)(F)F)cn5)(CC3)CC4)C(=O)C34CC(F)(C3)C4)c2)no1 [Example 188]            6.52

---

- measured target: FXR (Homo sapiens (Human))
- assay info: transient human FXR/Gal4-luciferase reporter assay
- Type: cell-based
- measurement context: Gal4-hFXR fusion construct, HEK293 reporter cells; response relative to 8 μM GW-4064
pEC50: −log10 of the molar value.
reported metric: pEC50

>>> df
                           smiles_structure             measured_target  reported_metric  recorded_value
0  O=C(N(CC12CCC(c3nc(C4CC4)no3)(CC1)CC2)c1cccc(-c2cccn3ncnc23)c1)C12CC(F)(C1)C2  FXR (Homo sapiens (Human))            pEC50            6.66
1  CCOc1ccc(-c2cccc(N(CC34CCC(c5noc(C6(C(F)(F)F)CC6)n5)(CC3)CC4)C(=O)C34CC(F)(C3)C4)c2)cc1  FXR (Homo sapiens (Human))            pEC50            6.95
2  CCOc1ccc(-c2cccc(N(CC34CCC(c5noc(C(C)(F)F)n5)(CC3)CC4)C(=O)C34CC(F)(C3)C4)c2)cc1  FXR (Homo sapiens (Human))            pEC50            6.99

---

Consider the following compounds and their measured EC50 readings.
- measured target: UniProt:Q96RI1
- assay info: FXR EC50 (FXR agonist potency reported with each Example)
- Format: cell-based
reported metric: EC50 (nM)

>>> df
                                   compound  unit_string  recorded_value
0  N#CC1(c2ccc(C34CCC(CN(C(=O)C5CC(F)(F)C5)c5cccc(-c6nc(C7CC7)no6)c5)(CC3)CO4)cc2)CC1 [Example 145]           nM            4320
1  O=C(N(CC12CCC(c3nc(C4CC4)no3)(CC1)CC2)c1cccc(-c2nnc(C3CC3)o2)c1)C12CC(F)(C1)C2 [Example 86]           nM             123
2  CO[C@H]1C[C@@H](C(=O)N(CC23CCC(c4nc(C(C)(C)C)no4)(CC2)CC3)c2cccc(-c3nc(C4CC4)no3)c2)C1 [Example 192]           nM             449

---

- measured target: FXR (Homo sapiens (Human), UniProt Q96RI1)
- Sequence (Q96RI1 262-486): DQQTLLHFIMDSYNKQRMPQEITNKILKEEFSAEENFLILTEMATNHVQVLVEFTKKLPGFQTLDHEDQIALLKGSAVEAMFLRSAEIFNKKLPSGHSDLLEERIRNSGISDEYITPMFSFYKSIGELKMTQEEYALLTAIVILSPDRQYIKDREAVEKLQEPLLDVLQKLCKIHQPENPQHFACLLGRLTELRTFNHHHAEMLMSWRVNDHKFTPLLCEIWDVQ
- assay info: transient human FXR/Gal4-luciferase reporter assay
- Type: cell-based
- measurement context: Gal4-hFXR fusion construct, HEK293 reporter cells; response relative to 8 μM GW-4064
pEC50: −log10 of the molar value.
Kind request: treat 7 as inclusive, so pEC50 at 7 or higher is class 1, anything lower is class 0.

>>> print(df.to_string())
                           smiles_structure    label
0  CCOc1ccc(-c2cccc(N(CC34CCC(c5nc(C6CC6)no5)(CC3)CC4)C(=O)C34CC(F)(C3)C4)c2)cc1  class 1
1  CS(=O)(=O)Nc1ccc(-c2cccc(N(CC34CCC(c5cnc(C(F)(F)F)nc5)(CC3)OC4)C(=O)C34CC(F)(C3)C4)c2)cc1  class 0
2  CC(C)c1noc(C23CCC(CN(C(=O)C45CC(F)(C4)C5)c4cccc(-c5cnc(C6CC6)nc5)c4)(CC2)CC3)n1  class 1
3  Cc1cnc(-c2cccc(N(CC34CCC(c5nc(C6CC6)no5)(CC3)CC4)C(=O)C34CC(F)(C3)C4)c2)cn1  class 1
4  CC(C)(O)C12CCC(c3ccnc(N(CC45CCC(c6nc(C7CC7)no6)(CC4)CC5)C(=O)OC(C)(C)C(F)(F)F)n3)(CC1)CC2  class 0
